Taken from patent US9394281B2.

# collection of IC50 values tested on FLT3 (h) (Homo sapiens (Human), UniProt P36888)
# Sequence (P36888 27-993): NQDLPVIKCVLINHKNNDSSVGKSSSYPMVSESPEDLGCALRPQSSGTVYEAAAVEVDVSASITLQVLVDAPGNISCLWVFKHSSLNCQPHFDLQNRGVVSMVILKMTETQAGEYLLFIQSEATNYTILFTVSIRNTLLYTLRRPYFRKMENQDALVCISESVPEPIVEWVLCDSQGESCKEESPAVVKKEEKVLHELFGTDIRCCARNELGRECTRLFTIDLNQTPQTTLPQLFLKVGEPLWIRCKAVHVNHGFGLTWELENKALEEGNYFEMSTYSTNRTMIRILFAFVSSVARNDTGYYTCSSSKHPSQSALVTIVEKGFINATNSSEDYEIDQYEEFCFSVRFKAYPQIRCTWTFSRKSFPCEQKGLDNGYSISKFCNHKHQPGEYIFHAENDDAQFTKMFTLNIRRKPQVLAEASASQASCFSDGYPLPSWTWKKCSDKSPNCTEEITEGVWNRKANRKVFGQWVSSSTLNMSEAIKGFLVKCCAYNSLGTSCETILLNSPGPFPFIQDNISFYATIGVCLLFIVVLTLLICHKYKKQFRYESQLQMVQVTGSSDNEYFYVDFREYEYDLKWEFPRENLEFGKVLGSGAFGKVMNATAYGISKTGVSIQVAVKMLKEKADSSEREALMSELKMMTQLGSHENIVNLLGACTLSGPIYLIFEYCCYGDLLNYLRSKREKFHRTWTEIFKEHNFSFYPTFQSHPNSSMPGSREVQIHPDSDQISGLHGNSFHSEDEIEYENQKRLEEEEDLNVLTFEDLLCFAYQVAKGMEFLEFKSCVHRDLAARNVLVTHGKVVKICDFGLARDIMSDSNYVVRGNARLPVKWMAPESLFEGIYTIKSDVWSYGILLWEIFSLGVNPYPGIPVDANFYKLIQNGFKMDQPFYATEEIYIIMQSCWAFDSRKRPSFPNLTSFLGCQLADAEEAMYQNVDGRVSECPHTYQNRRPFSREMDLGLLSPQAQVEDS
QUANTITY MEASURED: IC50 (nM)

A. Cn1cc(Nc2ncc(Cl)c(NC3COC4C(OCCO)COC34)n2)cn1 (centres unmarked) [Ex. 5]
B. Cn1cc(Nc2ncc(Cl)c(NC3COC4C(NS(C)(=O)=O)COC34)n2)cn1 (centres unmarked) [Ex. 8]
Recorded IC50 values differ for A and B ; which one is higher? Output the label that corresponds to your choice.
A
(A: 57 nM, B: 11 nM)

* * *

- METHOD DESCRIPTION: Pharmacokinetics after intravenous and oral administration in rats
- Format: in vivo, rat
- MEASUREMENT SETUP: rat, plasma, iv dosing, 1 mg/kg, read-out: Vss
QUANTITY MEASURED: Vd (L/kg)

Below: 2 compounds and their reported Vd.
COMPOUND | VALUE REPORTED
COC1COC2C(Nc3nc(Nc4cnn(C)c4)ncc3Cl)COC12 (stereo not shown) | 1.39
CN(c1nc(Nc2cnn(C)c2)ncc1Cl)C1COC2C(O)COC21 (stereo not shown) | 1.22

A. Cn1cc(Nc2ncc(Cl)c(NC3COC4C(NS(C)(=O)=O)COC34)n2)cn1 (stereo not shown)
B. Cn1cc(Nc2ncc(Cl)c(NC3COC4C(OCCO)COC34)n2)cn1 (stereo not shown)
Recorded Vd values differ for A and B ; which one is higher? Output the label that corresponds to your choice.
B

* * *

- METHOD DESCRIPTION: Pharmacokinetics after intravenous and oral administration in rats
- Type: in vivo, rat
- MEASUREMENT SETUP: iv dosing, 1 mg/kg
QUANTITY MEASURED: Cl/F (mL/min/kg)

Below: 2 molecules and their reported Cl/F.
MOLECULE | MEASURE UNIT | Cl/F
Cn1cc(Nc2ncc(Cl)c(NC3COC4C(OCCO)COC34)n2)cn1 (stereo not shown) | mL/min/kg | 25
CN(c1nc(Nc2cnn(C)c2)ncc1Cl)C1COC2C(O)COC21 (stereo not shown) | mL/min/kg | 18.2

a. COC1COC2C(Nc3nc(Nc4cnn(C)c4)ncc3Cl)COC12 (stereo not shown)
b. Cn1cc(Nc2ncc(Cl)c(NC3COC4C(NS(C)(=O)=O)COC34)n2)cn1 (stereo not shown)
Recorded Cl/F values differ for a and b ; which one is higher? Output the label that corresponds to your choice.
b

* * *

- METHOD DESCRIPTION: Compound stability in rat liver microsomes
- Assay type: in vitro ADME
- MEASUREMENT SETUP: pH 7.4; rat liver microsomes; in vivo CLint extrapolated
QUANTITY MEASURED: CLint scaled at 5 μM (mL/min/kg)

Below: 2 compounds and their reported CLint scaled at 5 μM.
COMPOUND | MEASURE UNIT | CLint scaled at 5 μM
CN(c1nc(Nc2cnn(C)c2)ncc1Cl)C1COC2C(O)COC21 (stereo not shown) | mL/min/kg | 2.01
COC1COC2C(Nc3nc(Nc4cnn(C)c4)ncc3Cl)COC12 (stereo not shown) | mL/min/kg | 28

1. Cn1cc(Nc2ncc(Cl)c(NC3COC4C(NS(C)(=O)=O)COC34)n2)cn1 (stereo not shown)
2. Cn1cc(Nc2ncc(Cl)c(NC3COC4C(OCCO)COC34)n2)cn1 (stereo not shown)
Parameter metric = CLint scaled at 5 μM. Return the lower-valued option from 1 and 2 . Output the label that corresponds to your choice.
2
(2: 3.42 mL/min/kg, 1: 25.2 mL/min/kg)

* * *

- METHOD DESCRIPTION: Pharmacokinetics after intravenous and oral administration in rats
- Assay type: in vivo, rat
- MEASUREMENT SETUP: rat, plasma, iv dosing, 1 mg/kg
- Experimental: The compounds disclosed herein are assessed in pharmacokinetic studies in mice, rats, dogs or monkeys. The compounds are administered as a water solution, 2% HPMC+1% TWEEN®80 in water solution, 5% DMSO+5% solutol in saline, 4% MC suspension or capsule. For the intravenous administration, the animals are generally given at 1 or 2 mg/kg dose. […] The plasma solutions are collected, and stored at −20° C. or −70° C. until analyzed by LC/MS/MS as described above.
QUANTITY MEASURED: AUC(0-t) (ng·h/mL)

Below: 2 compounds and their reported AUC(0-t).
COMPOUND | QUANTITY MEASURED | MEASURE UNIT | VALUE REPORTED
Cn1cc(Nc2ncc(Cl)c(NC3COC4C(OCCO)COC34)n2)cn1 (stereo not shown) | AUC(0-t) | ng·h/mL | 621
CN(c1nc(Nc2cnn(C)c2)ncc1Cl)C1COC2C(O)COC21 (stereo not shown) | AUC(0-t) | ng·h/mL | 929

P. Cn1cc(Nc2ncc(Cl)c(NC3COC4C(NS(C)(=O)=O)COC34)n2)cn1 (stereo not shown)
Q. COC1COC2C(Nc3nc(Nc4cnn(C)c4)ncc3Cl)COC12 (stereo not shown)
Parameter metric = AUC(0-t). Return the lower-valued option from P and Q . Output the label that corresponds to your choice.
P

* * *

- SYSTEM UNDER TEST: Aurora-A (h) (Homo sapiens (Human), UniProt O14965)
- Sequence (O14965 whole entry): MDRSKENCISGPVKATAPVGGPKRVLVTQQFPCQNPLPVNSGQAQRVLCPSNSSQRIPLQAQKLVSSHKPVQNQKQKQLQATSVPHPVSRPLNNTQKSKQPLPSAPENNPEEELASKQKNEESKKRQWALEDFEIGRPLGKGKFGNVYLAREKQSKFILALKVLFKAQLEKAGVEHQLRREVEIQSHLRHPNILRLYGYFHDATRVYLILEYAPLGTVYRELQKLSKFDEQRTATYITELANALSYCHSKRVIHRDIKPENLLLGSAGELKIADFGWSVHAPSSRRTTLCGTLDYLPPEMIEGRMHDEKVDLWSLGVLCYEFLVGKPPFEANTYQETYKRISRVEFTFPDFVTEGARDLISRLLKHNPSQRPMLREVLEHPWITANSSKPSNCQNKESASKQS
QUANTITY MEASURED: pIC50
Reminder that pIC50 is minus the log10 of a molar concentration.

Provide the documented pIC50 with Aurora-A (h) (Homo sapiens (Human), UniProt O14965) as the system for Cn1cc(Nc2ncc(Cl)c(NC3COC4C(N)COC34)n2)cn1 (stereo not shown) [Ex. 7]
7.00

* * *

- METHOD DESCRIPTION: Compound stability in rat liver microsomes
- Format: in vitro ADME
- MEASUREMENT SETUP: pH 7.4; rat liver microsomes 0.5 mg protein/mL, compound 5 μM, NADPH 1.0 mM, 37° C.; read-out: Rat T1/2
QUANTITY MEASURED: half-life at 5 μM (h)

Below: 2 compounds and their reported half-life at 5 μM.
COMPOUND | VALUE REPORTED
CN(c1nc(Nc2cnn(C)c2)ncc1Cl)C1COC2C(O)COC21 (stereo not shown) [Ex. 1] | 20.6
Cn1cc(Nc2ncc(Cl)c(NC3COC4C(NS(C)(=O)=O)COC34)n2)cn1 (stereo not shown) [Ex. 8] | 1.64

1. COC1COC2C(Nc3nc(Nc4cnn(C)c4)ncc3Cl)COC12 (stereo not shown) [Ex. 6]
2. Cn1cc(Nc2ncc(Cl)c(NC3COC4C(OCCO)COC34)n2)cn1 (stereo not shown) [Ex. 5]
Recorded half-life at 5 μM values differ for 1 and 2 ; which one is higher? Output the label that corresponds to your choice.
2
(2: 12.1 h, 1: 1.48 h)

* * *

- METHOD DESCRIPTION: Compound stability in human liver microsomes
- Format: in vitro ADME
- MEASUREMENT SETUP: pH 7.4; human liver microsomes 0.5 mg protein/mL, compound 5 μM, NADPH 1.0 mM, 37° C.; read-out: Human T1/2
QUANTITY MEASURED: half-life at 5 μM (h)

COMPOUND | half-life at 5 μM / h
CN(c1nc(Nc2cnn(C)c2)ncc1Cl)C1COC2C(O)COC21 (stereo not drawn) | 32.8

a. COC1COC2C(Nc3nc(Nc4cnn(C)c4)ncc3Cl)COC12 (stereo not drawn)
b. Cn1cc(Nc2ncc(Cl)c(NC3COC4C(NS(C)(=O)=O)COC34)n2)cn1 (stereo not drawn)
Recorded half-life at 5 μM values differ for a and b ; which one is higher? Output the label that corresponds to your choice.
b
